Assayed Target: SLC1A4 (Homo sapiens)
Construct: expressed in transfected cells; host or cells: Xenopus laevis oocytes (cRNA injection)
Sequence (P43007 whole entry): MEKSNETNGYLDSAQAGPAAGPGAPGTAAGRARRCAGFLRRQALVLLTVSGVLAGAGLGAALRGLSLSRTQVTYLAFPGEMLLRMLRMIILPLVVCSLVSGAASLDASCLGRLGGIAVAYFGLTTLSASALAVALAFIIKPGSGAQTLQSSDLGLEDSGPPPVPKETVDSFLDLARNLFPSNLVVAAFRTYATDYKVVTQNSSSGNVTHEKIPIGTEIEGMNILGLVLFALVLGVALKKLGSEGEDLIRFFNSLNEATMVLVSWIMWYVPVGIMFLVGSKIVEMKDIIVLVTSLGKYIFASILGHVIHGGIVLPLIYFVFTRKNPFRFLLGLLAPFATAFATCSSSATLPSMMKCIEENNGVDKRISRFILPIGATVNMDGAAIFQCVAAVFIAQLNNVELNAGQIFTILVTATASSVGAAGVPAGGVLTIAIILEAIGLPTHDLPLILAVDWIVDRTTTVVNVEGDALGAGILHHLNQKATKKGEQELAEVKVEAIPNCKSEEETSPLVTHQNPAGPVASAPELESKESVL
Method Description: TEVC block of anion leak conductance in oocytes
Format: cell-based
Run Conditions: SLC1A4; read-out: Ki
Reported Ki values are given for each entry in this list.

>  <Molecule>
CO[C@H]1CN[C@H](C(=O)O)[C@@H]1O [17a]

>  <Experimental Readout>
Ki

>  <Result>
> 500 µM

$$$$
>  <Molecule>
O=C(O)[C@H]1NC[C@@H](OCc2ccccc2)[C@@H]1O [14c]

>  <Experimental Readout>
Ki

>  <Result>
< 100 µM

$$$$

Lab note: next molecule to report on.
Give its Ki value. Item: O=C(O)[C@H]1NC[C@H](OCc2ccccc2)[C@H]1O [17c]
> 500 µM

----------
Assayed Target: SLC1A4 (Homo sapiens)
Construct: expressed in transfected cells; host or cells: Xenopus laevis oocytes (cRNA injection)
Method Description: TEVC block of anion leak conductance in oocytes
Type: cell-based
Run Conditions: from dose–response of blocked anion conductance; compounds tested only once without standard error; read-out: SLC1A4 Ki
Reported pKi values are given for each entry in this list.
Keep it numeric: pKi is minus log10 of the concentration in mol/L.

Known pKi results, listed for orientation:
>  <Molecule>
O=C(O)C1NCC(O)C1c1ccccc1 [10d, cis-3-phenyl-4-trans-hydroxy-L-proline]

>  <pKi>
3.48

$$$$
>  <Molecule>
CC(C)O[C@H]1CN[C@H](C(=O)O)[C@@H]1O [17b]

>  <pKi>
3.30

$$$$
>  <Molecule>
O=C(O)C1NCC(O)C1Oc1ccccc1 (centres unmarked) [12b]

>  <pKi>
3.23

$$$$

// pKi lookup, key: CC1C(O)CNC1C(=O)O (centres unmarked) [10b]
3.25

Give its pKi value. Item: CC1CNC(C(=O)O)C1O [10a, trans-3-hydroxy-cis-4-methyl-L-proline]
2.98

Give its pKi value. Item: O=C(O)C1NCC(Oc2ccccc2)C1O (centres unmarked) [12a]
3.82

----------
Assayed Target: mSLC1A5 (Mus musculus)
Construct: expressed in transfected cells; host or cells: Xenopus laevis oocytes (cRNA injection)
Sequence (P51912 1-553): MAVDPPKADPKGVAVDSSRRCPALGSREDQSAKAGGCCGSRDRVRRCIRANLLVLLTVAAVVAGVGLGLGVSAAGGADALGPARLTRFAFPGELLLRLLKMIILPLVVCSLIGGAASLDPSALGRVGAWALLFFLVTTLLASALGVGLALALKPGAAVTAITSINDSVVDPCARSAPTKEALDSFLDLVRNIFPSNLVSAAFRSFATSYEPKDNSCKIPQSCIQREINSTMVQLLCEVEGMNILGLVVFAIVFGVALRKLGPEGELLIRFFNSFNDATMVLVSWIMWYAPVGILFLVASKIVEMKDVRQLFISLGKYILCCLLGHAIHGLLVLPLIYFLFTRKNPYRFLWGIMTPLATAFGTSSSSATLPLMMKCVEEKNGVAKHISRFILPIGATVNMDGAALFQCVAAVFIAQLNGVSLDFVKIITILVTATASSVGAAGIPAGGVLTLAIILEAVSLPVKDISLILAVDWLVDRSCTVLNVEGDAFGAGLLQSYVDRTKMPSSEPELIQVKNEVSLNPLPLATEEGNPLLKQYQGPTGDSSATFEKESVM
Method Description: TEVC block of anion leak conductance in oocytes
Assay type: cell-based
Run Conditions: mSLC1A5; from dose–response of blocked anion conductance; compounds tested only once without standard error; read-out: SLC1A5 Ki
# note: boundary value 900 µM maps to N; Ki below it maps to Y

Study these solved cases before continuing.
>  <Compound>
O=C(O)C1NCC(O)C1c1ccccc1 [10d, cis-3-phenyl-4-trans-hydroxy-L-proline]

>  <Assayed Target>
mSLC1A5 (Mus musculus)

>  <Discrete Label>
N

$$$$
>  <Compound>
O=C(O)C1NCC(Oc2ccccc2)C1O (centres unmarked) [12a]

>  <Assayed Target>
mSLC1A5 (Mus musculus)

>  <Discrete Label>
Y

$$$$

For O=C(O)C1NCC(O)C1Oc1ccccc1 (centres unmarked) [12b] , is the recorded Ki below the cut-off of 900 µM?
Y

Quick check: does CC1CNC(C(=O)O)C1O [10a, trans-3-hydroxy-cis-4-methyl-L-proline] have Ki under 900 µM?
N

----------
Assayed Target: mSLC1A5 (Mus musculus, UniProt P51912)
Construct: expressed in transfected cells; host or cells: Xenopus laevis oocytes (cRNA injection)
Sequence (P51912 1-553): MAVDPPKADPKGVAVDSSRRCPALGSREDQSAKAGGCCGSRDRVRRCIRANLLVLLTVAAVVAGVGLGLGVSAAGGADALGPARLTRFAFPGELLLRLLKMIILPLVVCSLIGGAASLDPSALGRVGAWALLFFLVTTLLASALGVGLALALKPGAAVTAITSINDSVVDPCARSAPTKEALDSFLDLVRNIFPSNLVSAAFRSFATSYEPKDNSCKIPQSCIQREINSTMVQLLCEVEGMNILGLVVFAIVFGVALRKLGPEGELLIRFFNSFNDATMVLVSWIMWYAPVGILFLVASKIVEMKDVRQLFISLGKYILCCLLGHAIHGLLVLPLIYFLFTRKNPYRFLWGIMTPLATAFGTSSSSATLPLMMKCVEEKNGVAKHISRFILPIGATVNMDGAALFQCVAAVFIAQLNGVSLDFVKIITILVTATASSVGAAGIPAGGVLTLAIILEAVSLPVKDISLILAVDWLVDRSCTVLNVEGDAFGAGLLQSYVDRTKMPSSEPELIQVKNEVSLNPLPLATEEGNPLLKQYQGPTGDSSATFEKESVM
Method Description: TEVC block of anion leak conductance in oocytes
Type: cell-based
Run Conditions: SLC1A5; read-out: Ki
The following molecules are listed with their measured Ki values.

Known Ki results, listed for orientation:
>  <Molecule>
CO[C@H]1CN[C@H](C(=O)O)[C@@H]1O [17a]

>  <Ki>
> 500 µM

$$$$
>  <Molecule>
O=C(O)[C@H]1NC[C@@H](OCc2ccccc2)[C@@H]1O [14c]

>  <Ki>
< 100 µM

$$$$

Okay, next one:
Given the molecule O=C(O)[C@H]1NC[C@H](OCc2ccccc2)[C@H]1O [17c] , what is its reported Ki?
> 500 µM

----------
Entries and their pKi
Assayed Target: mSLC1A5 (Mus musculus)
Construct: expressed in transfected cells; host or cells: Xenopus laevis oocytes (cRNA injection)
Method Description: TEVC block of anion leak conductance in oocytes
Type: cell-based
Run Conditions: mSLC1A5; from dose–response of blocked anion conductance; compounds tested only once without standard error; read-out: SLC1A5 Ki
pKi: −log10 of the molar value.

Illustrative cases are given below, each with its answer.
>  <Compound>
O=C(O)C1NCC(c2ccccc2)C1O (stereo not shown) [10c]

>  <Result>
~3.22

$$$$
>  <Compound>
O=C(O)C1NCC(Oc2ccccc2)C1O (stereo not shown) [12c]

>  <Result>
~3.82

$$$$
>  <Compound>
CC1C(O)CNC1C(=O)O (stereo not shown) [10b]

>  <Result>
3.04

$$$$

// returns reported pKi for input CC(C)O[C@H]1CN[C@H](C(=O)O)[C@@H]1O [17b]
~3.40
